- Test system: SW480
- TEST: Cytotoxicity against human SW480 cells after 48 hrs by MTT assay
- Format: functional, cell-based
- PROTOCOL CONDITIONS: SW480, 48 h
pIC50: −log10 of the molar value.
Label class 1 when pIC50 >= 5; otherwise class 0.

CHEMICAL STRING	ASSIGNED LABEL
CC[C@]12C=CCN3CC[C@]4(C(=C(C(=O)OC)C1)Nc1cc(OC)ccc14)[C@@H]32	class 1
COC(=O)C1=C2Nc3ccccc3[C@@]23CCN2CC=C[C@@]([C@@H](C)OC(C)=O)(C1)[C@H]23	class 0
CC[C@]12C=CCN3CC[C@]4(C(=C(C(=O)OC)C1)Nc1cc(O)ccc14)[C@@H]32	class 0
COC(=O)C1=C2Nc3ccccc3[C@@]23CCN2[C@H](CC(C)=O)C=C[C@@]([C@@H](C)O)(C1)[C@H]23	class 1
CC[C@]12C=CCN3CC[C@]4(C(=C(C(=O)OC)C1)Nc1ccc(O)cc14)[C@@H]32	class 0
CC[C@]12C=C[C@@H](CC(C)=O)N3CC[C@]4(C(=C(C(=O)OC)C1)Nc1ccccc14)[C@@H]32	class 1
CC[C@]12C=CCN3CC[C@]4(C(=C(C(=O)OC)C1)Nc1cc(O)c(C)cc14)[C@@H]32	class 0
CC[C@]12C=CCN3CC[C@]4(C(=C(C(=O)OC)C1)Nc1cc(O)c(COC)cc14)[C@@H]32	class 0
CC[C@@]12CC(C(=O)OC)=C3Nc4ccccc4[C@@]34CCN(C[C@@H]3O[C@@H]31)[C@@H]24	class 0
